# target_of_assay: PPAR γ (Homo sapiens)
# experimental_protocol: PPAR γ activation action based on transactivation assay of PPAR γ by transient gene transfer (GAL4-PPAR γ chimeric receptor, luciferase reporter, HEK293EBNA cells)
# conditions_used: concentration showing 50% of the compound's own efficacy (maximum activity rate relative to pioglitazone 10 μmol/L = 100%), 24 hr
pEC50: −log10 of the molar value.
outcome_measure: pEC50

CCCc1nc2c(C)cc(-c3nnco3)cc2n1Cc1ccc2c(c1)CCc1ccccc1/C2=C\c1nnn[nH]1: 6.81
CCc1nc2c(C)cc(C)nc2n1Cc1ccc2c(c1)CCc1ccccc1/C2=C\c1noc(=S)[nH]1: 6.76
Cc1cc(-c2ccccc2)cc2c1nc(C)n2Cc1ccc2c(c1)CCc1ccccc1/C2=C\c1nnn[nH]1: 7.27
CCc1nc(-c2ccccc2)cn1Cc1ccc2c(c1)COc1ccccc1/C2=C(\C)c1noc(=O)[nH]1: 7.40
CCCc1nc2ccccc2n1Cc1ccc2c(c1)CCc1ccccc1/C2=C\c1noc(=O)[nH]1: 6.40
C/C(=C1\c2ccccc2OCc2nc(Cn3c(C4CC4)nc4c(Cl)ccnc43)ccc21)c1noc(=O)[nH]1: 6.50

[A] CCc1nc2c(Cl)cccc2n1C(C)c1ccc2c(c1)CCc1ccccc1/C2=C\c1noc(=O)[nH]1 (centres unmarked)
[B] CCCc1nc2c(C)cc(-c3ncco3)cc2n1Cc1ccc2c(c1)CCc1ccccc1/C2=C\C(=O)N(C)CC(=O)O
Challenge: Problem: Given the entries A and B , determine which has the lower reported pEC50. // caller expects the label of the chosen entry
Response given: A

[a] CCCc1nc2c(C(C)(C)O)cccc2n1Cc1ccc2c(c1)COc1ccccc1/C2=C(\C)c1noc(=O)[nH]1
[b] Cc1cc(-c2ccccc2)cc2c1nc(C)n2Cc1ccc2c(c1)CCc1ccccc1/C2=C\C(=O)O
Challenge: Of a versus b , which is the one with smaller reported pEC50? Response format: the label of the selected entry.
Response given: b
(b: 7.41, a: 7.89)

----------
# target_of_assay: PPAR γ (Homo sapiens)
# experimental_protocol: PPAR γ activation action based on transactivation assay of PPAR γ by transient gene transfer (GAL4-PPAR γ chimeric receptor, luciferase reporter, HEK293EBNA cells)
# conditions_used: concentration showing 50% of the compound's own efficacy (maximum activity rate relative to pioglitazone 10 μmol/L = 100%), 24 hr
pEC50: −log10 of the molar value.
outcome_measure: pEC50

CCC/C(=C1/c2ccc(Cn3c(CCC)nc4ccccc43)cc2COc2ccccc21)c1noc(=O)[nH]1 [Compound 115]: 7.44
CCCc1nc2c(C(N)=O)cccc2n1Cc1ccc2c(c1)COc1ccccc1/C2=C(\C)c1noc(=O)[nH]1 [Compound 100]: 7.70
CCc1nc2c(C)cc(-c3ccccc3)cc2n1Cc1ccc2c(c1)CCc1ccccc1/C2=C\C#N [Compound 50]: 6.45

[A] CCCc1nc2ccccc2n1Cc1ccc2c(c1)COc1ccccc1/C2=C(\C)c1noc(=O)[nH]1 [Compound 27]
[B] CCCc1nc2ccccc2n1Cc1ccc2c(c1)CCc1ccccc1/C2=C\c1n[nH]c(=O)o1 [Compound 7]
[C] CCc1nc2c(C)cc(C)nc2n1Cc1ccc2c(c1)OCc1ccccc1/C2=C(\C)c1noc(=O)[nH]1 [Compound 76]
[D] CCCc1nc2c(C)cccc2n1C(C)c1ccc2c(c1)CCc1ccccc1/C2=C\c1noc(=O)[nH]1 (stereo not shown) [Compound 85]
Challenge: Hey, quick one: sort these by pEC50, low to high? API: response body holds the labels in the requested order.
Response given: B, C, D, A
(B: 6.10, C: 6.48, D: 7.57, A: 8.59)

----------
# target_of_assay: PPAR γ (Homo sapiens, UniProt P37231)
# Sequence (P37231 202-503): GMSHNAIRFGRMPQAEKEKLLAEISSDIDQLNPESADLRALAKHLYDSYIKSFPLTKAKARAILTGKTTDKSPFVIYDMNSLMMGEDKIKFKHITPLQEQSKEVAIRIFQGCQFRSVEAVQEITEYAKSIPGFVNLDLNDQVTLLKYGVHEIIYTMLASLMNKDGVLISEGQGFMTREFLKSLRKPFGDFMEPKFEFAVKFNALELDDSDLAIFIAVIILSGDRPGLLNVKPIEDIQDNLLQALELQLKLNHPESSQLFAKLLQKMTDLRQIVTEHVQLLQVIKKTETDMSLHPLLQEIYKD
# experimental_protocol: PPAR γ activation action based on transactivation assay of PPAR γ by transient gene transfer (GAL4-PPAR γ chimeric receptor, luciferase reporter, HEK293EBNA cells)
# conditions_used: concentration showing 50% of the compound's own efficacy (maximum activity rate relative to pioglitazone 10 μmol/L = 100%), 24 hr
pEC50: −log10 of the molar value.
outcome_measure: pEC50

COCc1nc2ccccc2n1Cc1ccc2c(c1)COc1ccccc1/C2=C(\C)c1noc(=O)[nH]1: 8.01
CCCc1nc2ccccc2n1Cc1ccc2c(c1)COc1ccc(F)cc1/C2=C(\C)c1noc(=O)[nH]1: 7.92
CCCc1nc2c(C)cc(-c3cccs3)cc2n1Cc1ccc2c(c1)CCc1ccccc1/C2=C\c1nnn[nH]1: 6.81

[a] CCCc1nc2c(C)cccc2n1Cc1ccc2c(c1)COc1ccccc1/C2=C(\C)c1noc(=O)[nH]1
[b] C/C(=C1\c2ccccc2CCc2cc(Cn3c(C4CC4)nc4c(Cl)cccc43)ccc21)c1noc(=O)[nH]1
[c] C/C(=C1/c2ccc(Cn3c(Cc4ccccc4)nc4ccccc43)cc2COc2ccccc21)c1noc(=O)[nH]1
Challenge: Sequence the entries by pEC50, beginning with the highest number. // list labels; follow requested order
Response given: a, b, c
(a: 8.62, b: 8.19, c: 7.59)
